tested on: CAKI-1; test: NCI tumour cell line growth inhibition, 48 h
Activity calls are given as the source filed them. Cut-off read from the data, not from the text of the source: active = GI50 up to about 1.1 µM and inactive = higher.
Give your call using only these classes: active, inactive

Q: Hi, do you know how COc1cc(C=O)cc(/C=N/c2ccccn2)c1O came out in this test?
A: inactive

Q: Next up: Nc1nnc(N)n1N
A: inactive

Q: Next up: CC12CCC(=O)N1[C@@H](c1ccccc1)[C@@H](c1ccccc1)O2 (stereo not given in full)
A: inactive

Q: Next up: O=[N+]([O-])c1cccc2nc3ccccc3c(NCCNCCO)c12
A: active

Q: Next up: COc1ccc(N2C(=O)CC(C3CC(C(C)(C)C)CCC3=O)C2=O)cc1 (stereo not given)
A: inactive

Q: Next up: COc1ccc2c(c1)[n+]([O-])c(-c1ccccc1)c(N)[n+]2[O-]
A: inactive

Q: Next up: OC(c1cc(C(F)(F)F)nc2c(Cl)cc(Cl)cc12)C1CCCCN1 (stereo not given)
A: inactive

Q: Next up: O=C1/C(=N\NC(=S)Nc2ccc(Cl)cc2)c2cc([N+](=O)[O-])ccc2N1CN1CCOCC1
A: inactive

Q: Next up: CC1C[C@@H]2C(=O)NC(=O)[C@@H]2c2c1c1ccccc1n2C (stereo not given in full)
A: inactive

Q: Next up: COC(=O)C1=CC2C(=O)OC1C1C(=O)NC(=O)C21 (stereo not given)
A: inactive

* * *

test system: Hs-578T; assay: NCI tumour cell line growth inhibition, 48 h
Calls of active or inactive are those of the source. No stated cut-off is given here; in the data, active = GI50 up to about 1.1 µM and inactive = higher.
Give your call using only these classes: T for active, F for inactive

Q: Hi, do you know how Nc1ccccc1/N=C/c1cc2cc([N+](=O)[O-])ccc2s1 came out in this test?
A: F

Q: Next up: O=C(O)c1ccc(Cc2ccccc2C(=O)O)cc1
A: F

Q: Next up: Cc1ccc(C(=O)O)c(/C=C2\Cc3cc(C)cc(C)c3C2=O)c1
A: F

Q: Next up: C=CCCC(=O)C(=[N+]=[N-])C(=O)CCC(=O)c1ccccc1
A: F

Q: Next up: CSCCCNC(=O)c1csc([C@@H](CSC)NC(=O)CCNC(=O)[C@@H](NC(=O)OCC(Br)(Br)Br)C(C)O)n1 (stereo not given in full)
A: F

Q: Next up: O=C1Nc2ccccc2C1(O)Cc1ccccn1 (stereo not given)
A: F

Q: Next up: O=S1(=O)OC(c2ccc(O)cc2)(c2ccc(O)cc2)c2ccccc21 [PHENOLSULFONPHTHALEIN]
A: F

Q: Next up: COc1ccc(Cn2c(=O)c(OS(=O)(=O)C(F)(F)F)c(C)c3cc4ccccc4cc32)cc1
A: F

Q: Next up: CC(=O)C(C)C(=O)N1C(=O)N(C)C2(C)N(C)C(=O)NC12C (stereo not given)
A: F

Q: Next up: COC(=O)N/N=C(/CC1(O)C(=O)Nc2ccc([N+](=O)[O-])cc21)c1ccccc1 (stereo not given)
A: F

Q: Next up: N#CCCN(CCCN(CCCN(C(=O)Nc1ccccc1)c1ccccc1)C(=O)Nc1ccccc1)C(=O)Nc1ccccc1
A: F

Q: Next up: CSc1c(C#N)c(N)n(-c2ccc(Cl)cc2)c(=O)c1C#N
A: F

Q: Next up: CC(=O)OCC(OC(C)=O)C1C[C@H]2O[C@@H]3[C@H](C[C@H]2O1)O[C@@]1(C[C@@H]3C)C[C@H](C)[C@@H]2O[C@]3(C[C@@H]2O1)C[C@H]1O[C@H]2[C@H](C)[C@H]4OC(=O)CC5CC[C@H]6OC7[C@H]8O[C@]9(CC[C@H]%10CC(O)(CO)[C@H](CC[C@H]%11C[C@@H](C)C(O)(CO)C(C[C@@H]4O[C@H]2C[C@H]1O3)O%11)O%10)CC8O[C@@H]7[C@@H](O9)[C@H]6O5 (stereo not given in full)
A: T

Q: Next up: COc1ccc(C2C(C#N)=C(S)N(C3OC(CO)C(O)C(O)C3O)C(c3ccccc3)=C2C(C)=O)cc1 (stereo not given)
A: F

Q: Next up: COc1ccccc1C1(c2c(OC)c(=O)c2=O)SCCCS1
A: F

Q: Next up: COc1ccc(/C=N/Nc2nnc3c(n2)c2ccccc2c2nn(-c4ccccc4Cl)nc23)cc1
A: F

Q: Next up: O=P(Oc1ccccc1)(Oc1ccccc1)Oc1c[nH]c2ccccc12
A: F

Q: Next up: COC(=O)/C=C1\C(=O)N(C(C)=O)c2ccc(Br)cc21
A: F

Q: Next up: CCCn1c(=O)c(N2CCN(c3ccccc3)CC2)nc2sc3ccccc3c21
A: F

Q: Next up: COc1ccc(/C=C(/c2ccc(OC)cc2)c2c(Cl)cc(Cl)c(/C(=C\c3ccc(OC)cc3)c3ccc(OC)cc3)c2/N=N/c2ccccc2)cc1
A: F

Q: Next up: Cc1nn(-c2ccccc2)c(C)c1/C=N/N=C1\S/C(=C\c2ccc(Cl)cc2)C(=O)N1c1ccccc1
A: F

Q: Next up: CC(=O)O[C@@H]1[C@H]2[C@@H](OC(=O)c3ccccc3)[C@@H](C)C[C@]2(O)[C@H](OC(C)=O)[C@@]2(C)[C@@H]3C[C@@](C)(OC(C)=O)C[C@@H](OC(C)=O)[C@@]3(OC(C)=O)C[C@@]12C
A: F

Q: Next up: O=c1cc(-c2ccncc2)[nH]c2cc3c(cc12)OCO3
A: F

Q: Next up: CC1(C)CS(=O)(=O)CC(C)(C)C(=N/N)/C1=N\N
A: F

Q: Next up: C/C(=N\Nc1nc2ccccc2[nH]1)c1cccc[n+]1[O-]
A: F

* * *

system: K562; experiment: NCI tumour cell line growth inhibition, 48 h
Active and inactive are the calls of the source. Rule as the data show it: active = GI50 up to about 1.1 µM and inactive = higher.
Please respond with reported GI50 for every item in the list.

Q: Fill in the blank: the reported GI50 of CNC(=O)c1ccc(C(=O)NCCCCCN(O)C(=O)CCC(=O)NCCCCCN(O)C(=O)CCC(=O)NCCCCCN(O)C(C)=O)c(O)c1O is ____.
A: 65 µM (inactive)

Q: Next up: CC1(C)C2CCC(=O)C1CC2 (centres undefined)
A: 58.2 µM (inactive)

Q: Next up: COC(=O)C1C2C=CC(C2)N1S(=O)(=O)c1ccccc1 (centres undefined)
A: > 100 µM (inactive)

Q: Next up: CN/N=C(\C)c1c(O)cc(C)oc1=O
A: > 100 µM (inactive)

* * *

tested on: UACC-62; experiment: NCI tumour cell line growth inhibition, 48 h
Active and inactive are the calls of the source. Cut-off read from the data, not from the text of the source: active = GI50 up to about 1.1 µM and inactive = higher.
Please respond with reported GI50 for every item in the list.

Q: Enter reported GI50 observed with UACC-62 for CN(C(=N)c1ccccc1)c1ccccc1
A: > 100 µM (inactive)

Q: Next up: NC(=S)N/N=C1\CCCC1C(O)(C(F)(F)Cl)C(F)(F)Cl (stereo unspecified)
A: 8.63 µM (inactive)

Q: Next up: CCOC(=O)C1(c2ccccc2)CCC(=O)CC1
A: > 100 µM (inactive)

Q: Next up: Oc1ccc(-c2nc3cc(C(F)(F)F)ccc3s2)cc1
A: 13.9 µM (inactive)

Q: Next up: COP(=O)(OC)c1ccc(NCc2cc(O)ccc2O)cc1
A: 19.5 µM (inactive)

Q: Next up: Oc1ccc(-c2cc(-c3c(O)cc(O)cc3O)on2)cc1
A: 31.3 µM (inactive)

Q: Next up: O=C1CCCC(=O)N1CCc1c[nH]c2ccccc12
A: > 100 µM (inactive)

Q: Next up: COc1cc(-c2cc(O)c(-c3ccc4ccccc4n3)c(O)n2)cc(OC)c1OC
A: 15.2 µM (inactive)

Q: Next up: COC(=O)/C=C1\C(=O)N(C(C)=O)c2ccc(Br)cc21
A: 11.6 µM (inactive)

Q: Next up: Cc1ccc2nc(N/N=C/c3cccc(C)n3)cc(C)c2c1
A: 15.2 µM (inactive)

Q: Next up: COC(=O)C(=O)C1(CCC(C)=O)c2ccccc2-c2c(C)ccc(C)c21 (stereo unspecified)
A: 7.53 µM (inactive)

* * *

test system: HCT-116; experiment: NCI tumour cell line growth inhibition, 48 h
Active and inactive are the calls of the source. Rule as the data show it: active = GI50 up to about 1.1 µM and inactive = higher.
reportedEndpoint: GI50

Q: Fill in the blank: the reported GI50 of COc1ccc(/C(=N/NC(N)=O)C2(O)C(=O)Nc3ccc([N+](=O)[O-])cc32)cc1 (stereo not given) is ____.
A: 14.9 µM (inactive)

Q: Next up: COc1ccc(NC(=O)N(C)CC2(O)CCC(C(C)(C)C)CC2)cc1 (stereo not given)
A: 83.4 µM (inactive)

Q: Next up: COc1ccc(/N=N/c2c(C)c(C#N)c(=S)n(C3OC(CO)C(O)C(O)C3O)c2C)cc1 (stereo not given)
A: 31.6 µM (inactive)

Q: Next up: COC(=O)CCC(NC(=S)N/N=C/c1ccccn1)C(=O)OC (stereo not given)
A: > 100 µM (inactive)

Q: Next up: O=NN1CCN=C1c1ccc([N+](=O)[O-])cc1
A: > 100 µM (inactive)

Q: Next up: Clc1ccc(C(SCc2ccccc2)SCc2ccccc2)cc1
A: > 10 µM (inactive)

Q: Next up: CCC(Nc1ncnc2nc[nH]c12)C(=O)O (stereo not given)
A: > 100 µM (inactive)

Q: Next up: O=C(/C=C/c1ccc(OCc2cccc(Cl)c2)cc1)NO
A: 11.5 µM (inactive)

Q: Next up: CC(=O)OCC1OC(N2C(=O)NC(=O)C3C=C4CCCCC4=CC32)C(OC(C)=O)C1OC(C)=O (stereo not given)
A: > 100 µM (inactive)

Q: Next up: COc1ccc(C2=Nn3c(C)nnc3S/C2=C\c2ccc(-c3ccc([N+](=O)[O-])cc3)o2)cc1
A: 11 µM (inactive)

Q: Next up: O=[N+]([O-])c1cc(C(F)(F)F)ccc1S(=O)(=O)N[C@@H]1CCCC[C@H]1NS(=O)(=O)c1ccc(C(F)(F)F)cc1[N+](=O)[O-]
A: 3.43 µM (inactive)

Q: Next up: O=C(c1ccccc1)c1ccc2nc3n(c2c1)C(c1c(Cl)cccc1Cl)SC3 (stereo not given)
A: 3.26 µM (inactive)

Q: Next up: c1ccc(-c2nnn(CCN3CCCCC3)n2)cc1
A: > 100 µM (inactive)

Q: Next up: C[Si](C)(C)CN1C(=O)c2ccccc2C1(O)c1ccccc1 (stereo not given)
A: 48 µM (inactive)

Q: Next up: Cc1cc(C)c(S(=O)(=O)N(CCCCN)OCCCN)c(C)c1
A: 16.7 µM (inactive)
